TEST_DETAILS: clinical
MEASUREMENT_PARAMETERS: human, in vivo, iv, 24 mg
RECORDED_METRIC: clearance (mL/min)
Reply numerically in mL/min, unit not repeated.

// query Record request: clearance value, item CNCc1ccc(-c2[nH]c3cc(F)cc4c3c2CCNC4=O)cc1
// result 233

* * *

TEST_DETAILS: Plasma pharmacokinetics of rucaparib (LC-MS/MS, noncompartmental)
MEASUREMENT_PARAMETERS: human, plasma, iv, 18 mg, Cmax, single i.v. dose 18 mg, day –10; geometric mean (CV%)
RECORDED_METRIC: Cmax (ng/mL)
Reply numerically in ng/mL, unit not repeated.

// query Record request: Cmax value, item CNCc1ccc(-c2[nH]c3cc(F)cc4c3c2CCNC4=O)cc1
// result 498
